target-desc: T1, TRCW5 antigen (CD3δε-Fc-Avi) (biotinylated (site not stated))
T1 construct: also called recombinant CD3
T1 sequence (chain, as listed by the source mutant limits assumed): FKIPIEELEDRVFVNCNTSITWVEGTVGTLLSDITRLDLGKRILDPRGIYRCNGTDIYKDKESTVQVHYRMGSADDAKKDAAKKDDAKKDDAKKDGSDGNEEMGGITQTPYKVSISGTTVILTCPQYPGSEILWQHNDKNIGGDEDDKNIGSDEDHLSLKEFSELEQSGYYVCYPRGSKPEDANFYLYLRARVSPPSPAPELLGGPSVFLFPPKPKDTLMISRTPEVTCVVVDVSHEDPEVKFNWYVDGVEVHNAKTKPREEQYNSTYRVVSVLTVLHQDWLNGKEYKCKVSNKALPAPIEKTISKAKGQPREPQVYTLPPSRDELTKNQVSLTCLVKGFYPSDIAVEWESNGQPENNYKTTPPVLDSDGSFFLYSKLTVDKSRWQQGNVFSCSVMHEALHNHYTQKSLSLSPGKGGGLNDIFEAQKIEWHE
test-summary: binding after heat
quantity: % Retained 65° C.

Answered examples (2):
binder	quantity	recorded-result
CD3B2030 N106S (scFv) scFv: QVQLVQSGAEVKKPGSSVKVSCKASGYTFTRSTMHWVKQAPGQGLEWIGYINPSSAYTNYNQKFQGRVTLTADKSTSTAYMELSSLRSEDTAVYYCASPQVHYDYSGFPYWGQGTLVTVSSGGSEGKSSGSGSESKSTGGSEIVLTQSPATLSASPGERVTLSCSASSSVSYMNWYQQKPGQAPRRWIYDSSKLASGVPARFSGSGSGRDYTLTISSLEPEDFAVYYCQQWSRNPPTFGGGTKVEIK	% Retained 65° C.	0.6%
CD3B2051 N106R (scFv) scFv: QVQLVQSGAEVKKPGSSVKVSCKASGYTFTRSTMHWVKQAPGQGLEWMGYINPSSAYTNYNQKFQGRVTLTADKSTSTAYMELSSLRSEDTAVYYCASPQVHYDYRGFPYWGQGTLVTVSSGGSEGKSSGSGSESKSTGGSEIVLTQSPATLSASPGERVTLSCSASSSVSYMNWYQQKPGQAPRRLIYDSSKLASGVPARFSGSGSGRDYTLTISSLEPEDFAVYYCQQWSRNPPTFGGGTKVEIK	% Retained 65° C.	8.4%

Count: 3. Required value per item: % Retained 65° C..
1. CD3B2051 N106A (scFv) scFv: QVQLVQSGAEVKKPGSSVKVSCKASGYTFTRSTMHWVKQAPGQGLEWMGYINPSSAYTNYNQKFQGRVTLTADKSTSTAYMELSSLRSEDTAVYYCASPQVHYDYAGFPYWGQGTLVTVSSGGSEGKSSGSGSESKSTGGSEIVLTQSPATLSASPGERVTLSCSASSSVSYMNWYQQKPGQAPRRLIYDSSKLASGVPARFSGSGSGRDYTLTISSLEPEDFAVYYCQQWSRNPPTFGGGTKVEIK
2. CD3B2051 N106E (scFv) scFv: QVQLVQSGAEVKKPGSSVKVSCKASGYTFTRSTMHWVKQAPGQGLEWMGYINPSSAYTNYNQKFQGRVTLTADKSTSTAYMELSSLRSEDTAVYYCASPQVHYDYEGFPYWGQGTLVTVSSGGSEGKSSGSGSESKSTGGSEIVLTQSPATLSASPGERVTLSCSASSSVSYMNWYQQKPGQAPRRLIYDSSKLASGVPARFSGSGSGRDYTLTISSLEPEDFAVYYCQQWSRNPPTFGGGTKVEIK
3. CD3B2051 N106H (scFv) scFv: QVQLVQSGAEVKKPGSSVKVSCKASGYTFTRSTMHWVKQAPGQGLEWMGYINPSSAYTNYNQKFQGRVTLTADKSTSTAYMELSSLRSEDTAVYYCASPQVHYDYHGFPYWGQGTLVTVSSGGSEGKSSGSGSESKSTGGSEIVLTQSPATLSASPGERVTLSCSASSSVSYMNWYQQKPGQAPRRLIYDSSKLASGVPARFSGSGSGRDYTLTISSLEPEDFAVYYCQQWSRNPPTFGGGTKVEIK

Marked response:
["33.3%", "0.5%", "9%"]

These data points were gathered from patent US20250145711A1.
